# procedure.details: Pharmacokinetics after intravenous and oral administration in rats
# Format: in vivo
# condition.info: rat, plasma, iv dosing, dose 0.5 mg/kg, read-out: Vss
# Procedure: The compounds disclosed herein are assessed in pharmacokinetic studies in mice, rats, dogs or monkeys. The compounds are administered as a water solution, 2% HPMC+1% TWEEN®80 in water solution, 5% DMSO+5% solutol in saline, 4% MC suspension or capsule. For the intravenous administration, the animals are generally given at 0.5, 1 or 2 mg/kg dose. […] The plasma solutions are collected, and stored at −20° C. or −70° C. until analyzed by LC/MS/MS as described above.
experimental.endpoint: Vd

>>> df
                                   compound  recorded_measurement
0  Cn1cc(Nc2ncc(Cl)c(NC3CCC4(CC3)CCN(C(=O)CC3CC3)CC4)n2)cn1 [Ex. 20]             1.07 L/kg
